Target: T1, Active phosphorylated His6-tagged ERK2 E320K (rat (p-0033 says mouse)), P63086
T1 chain: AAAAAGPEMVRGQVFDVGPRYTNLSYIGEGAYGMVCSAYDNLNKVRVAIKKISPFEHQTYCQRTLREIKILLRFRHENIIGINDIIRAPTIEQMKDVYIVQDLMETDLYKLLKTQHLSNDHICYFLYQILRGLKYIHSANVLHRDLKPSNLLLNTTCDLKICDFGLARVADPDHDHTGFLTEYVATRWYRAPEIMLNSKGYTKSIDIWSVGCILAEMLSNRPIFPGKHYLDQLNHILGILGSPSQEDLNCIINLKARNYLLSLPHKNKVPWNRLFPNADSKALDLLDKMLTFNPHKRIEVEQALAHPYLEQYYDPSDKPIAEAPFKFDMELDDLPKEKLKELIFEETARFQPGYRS
Conditions: modification not given; phosphorylated (active form; sites not given)
Ends that are not written are not given here.
attribute_measured: IC50 (µM)
The answer is to be given in µM; state only the numeric part.

IC50 for PQKGRKPRDLELPL (not fully specified (some residues, N-terminus)) [ELK1] is 43
